assay: Peptide hydrogel formation, vial-inverting method; assay type: physicochemical; details: 120 mM peptide (highest tested) in ultrapure water; pH 6.5-8.5 (1 N NaOH), ultrasonication, standing 48 h; vial-inverting method; precipitate, sol, suspension = no gel
Where a SMILES comes first, the peptide text is derived from it.
READOUT TYPE: State

{"columns": ["COMPOUND", "MEASURED"],
 "data": [
  ["O=C(CNC(=O)[C@@H]1CCCN1)N[C@@H](Cc1c[nH]c2ccccc12)C(=O)N[C@@H](Cc1c[nH]c2ccccc12)C(=O)O [PGWW] (H-PGWW-OH)", "sol"],
  ["N[C@@H](CC(=O)O)C(=O)N[C@@H](CC(=O)O)C(=O)N[C@@H](CC(=O)O)C(=O)N[C@@H](CC(=O)O)C(=O)O [DDDD] (H-DDDD-OH)", "sol"],
  ["CC(C)[C@H](N)C(=O)N[C@@H](Cc1ccccc1)C(=O)NCC(=O)N[C@H](C(=O)O)C(C)C [VFGV] (H-VFGV-OH)", "sol"],
  ["CC(C)[C@H](NC(=O)[C@@H](N)Cc1ccc(O)cc1)C(=O)N[C@@H](Cc1ccccc1)C(=O)N[C@@H](C)C(=O)O [YVFA] (H-YVFA-OH)", "gel"]
]}

* * *

experiment: Transmission electron microscope (negative staining) of peptide assemblies; conditions: TEM, negative staining with uranyl acetate, 120 kV; line of the table gives 120 mM
Where a SMILES comes first, the peptide text is derived from it.

{"columns": ["COMPOUND", "Morphology"],
 "data": [
  ["N[C@@H](CO)C(=O)N[C@@H](Cc1c[nH]c2ccccc12)C(=O)N[C@@H](Cc1ccc(O)cc1)C(=O)N[C@@H](Cc1ccccc1)C(=O)O [SWYF] (H-SWYF-OH)", "fibre"],
  ["CC(C)C[C@H](NC(=O)[C@@H](NC(=O)[C@H](CC(C)C)NC(=O)[C@@H](N)C(C)C)C(C)C)C(=O)O [VLVL] (H-VLVL-OH)", "sheet"]
]}

* * *

experiment: Peptide hydrogel formation, vial-inverting method; format: physicochemical; conditions: 120 mM peptide (highest tested) in ultrapure water; pH 6.5-8.5 (1 N NaOH), ultrasonication, standing 48 h; vial-inverting method; precipitate, sol, suspension = no gel
Where a SMILES comes first, the peptide text is derived from it.
READOUT TYPE: State

{"columns": ["COMPOUND", "MEASURED"],
 "data": [
  ["CC(C)C[C@H](N)C(=O)N[C@@H](CCCNC(=N)N)C(=O)N[C@@H](Cc1ccccc1)C(=O)N[C@@H](Cc1c[nH]cn1)C(=O)O [LRFH] (H-LRFH-OH)", "sol"],
  ["O=C(O)[C@H](Cc1ccc(O)cc1)NC(=O)[C@H](Cc1c[nH]c2ccccc12)NC(=O)[C@H](Cc1c[nH]c2ccccc12)NC(=O)[C@@H]1CCCN1 [PWWY] (H-PWWY-OH)", "sol"],
  ["CC(C)C[C@H](N)C(=O)NCC(=O)N[C@H](C(=O)N[C@@H](Cc1ccccc1)C(=O)O)C(C)C [LGVF] (H-LGVF-OH)", "sol"]
]}

* * *

test: Peptide hydrogel formation, vial-inverting method; format: physicochemical; settings: 120 mM peptide (highest tested) in ultrapure water; pH 6.5-8.5 (1 N NaOH), ultrasonication, standing 48 h; vial-inverting method; precipitate, sol, suspension = no gel
Where a SMILES comes first, the peptide text is derived from it.

{"columns": ["COMPOUND", "State"],
 "data": [
  ["CC(C)C[C@H](NC(=O)[C@H](CC(C)C)NC(=O)[C@H](Cc1ccccc1)NC(=O)[C@@H](N)CCCCN)C(=O)O [KFLL] (H-KFLL-OH)", "sol"],
  ["CSCC[C@H](NC(=O)[C@@H](N)CCC(N)=O)C(=O)N[C@H](C(=O)N[C@H](C(=O)O)C(C)C)C(C)C [QMVV] (H-QMVV-OH)", "gel"],
  ["N[C@@H](Cc1ccc(O)cc1)C(=O)N[C@@H](Cc1ccc(O)cc1)C(=O)N[C@@H](Cc1ccc(O)cc1)C(=O)N[C@@H](Cc1ccc(O)cc1)C(=O)O [YYYY] (H-YYYY-OH)", "sol"]
]}

Data credit: paper PMC10313671
